- assay-name: Pharmacokinetic analysis of test compounds in AAV/HBV model mice
- Type: in vivo, C57BL/6 mice
- test-context: C57BL/6, mouse, serum, po; 10 mg/kg, BID, AAV/HBV model mice, day 27; read-out: MRT0-inf
recorded-metric: MRT inf (h)
Give just the numeric value; h need not be written.

Recorded MRT inf (compound Cc1cc2n(c1)S(=O)(=O)c1ccc(C(=O)NCC[C@H]3COCCO3)cc1NC2=O ): 6.36

###

- assay-name: Pharmacokinetic analysis of test compounds in AAV/HBV model mice
- Type: in vivo, C57BL/6 mice
- test-context: C57BL/6, mouse, serum; group 2, 10 mg/kg BID oral, day 27, 24 hours after the first dosage; read-out: average drug concentration in the mouse serum
recorded-metric: concentration at 24 h (nM)
Give just the numeric value; nM need not be written.

Recorded concentration at 24 h (compound Cc1cc2n(c1)S(=O)(=O)c1ccc(C(=O)NCC[C@H]3COCCO3)cc1NC2=O ): 66
